- Test system: A549
- ASSAY_COMMENT: relative viability (nuclei count vs DMSO), 5 days (fraction); higher = more cells survive
- TEST_CONDITIONS: first compound 0.253 µM
MEASURED_PARAMETER: relative viability
Please give only the number in your answer, with no unit.

Examples with answers:
O=c1[nH]c2ccccc2n1C1CCN(CCCC(c2ccc(F)cc2)c2ccc(F)cc2)CC1 [Pimozide] + CC1(C)CCC(c2ccc(Cl)cc2)=C(CN2CCN(c3ccc(C(=O)NS(=O)(=O)c4ccc(N[C@H](CCN5CCOCC5)CSc5ccccc5)c(S(=O)(=O)C(F)(F)F)c4)cc3)CC2)C1 [Navitoclax] (partner 0.5 µM)	1.31
Cc1cnc(-c2cnc(NCCNc3ccc(C#N)cn3)nc2-c2ccc(Cl)cc2Cl)[nH]1 + COc1cc2c(Oc3ccc(NC(=O)C4(C(=O)Nc5ccc(F)cc5)CC4)cc3F)ccnc2cc1OCCCN1CCOCC1 [Foretinib] (partner 0.25 µM)	0.963
O=c1[nH]c2ccccc2n1C1CCN(CCCC(c2ccc(F)cc2)c2ccc(F)cc2)CC1 [Pimozide] + Nc1ncn([C@H]2C[C@H](O)[C@@H](CO)O2)c(=O)n1 [Decitabine] (partner 2 µM)	0.208

Query string: Please look up its relative viability: Cc1cnc(-c2cnc(NCCNc3ccc(C#N)cn3)nc2-c2ccc(Cl)cc2Cl)[nH]1 + C[C@@H](Oc1cc(-c2cnn(C3CCNCC3)c2)cnc1N)c1c(Cl)ccc(F)c1Cl [Crizotinib] (partner 1 µM)
Result string: 0.692

====

Parameter: relative viability. Scope: all listed entries.
- Test system: NCI-H1915
- ASSAY_COMMENT: relative viability (nuclei count vs DMSO), 5 days (fraction); higher = more cells survive
- TEST_CONDITIONS: first compound 0.5 µM
Please give only the number in your answer, with no unit.

Examples with answers:
Nc1ccn([C@@H]2O[C@H](CO)[C@@H](O)[C@@H]2O)c(=O)n1 [Cytarabine] + O=C(CCCCCCC(=O)Nc1ccccc1)NO [Vorinostat] (partner 1 µM)	0.235
Nc1ccn([C@@H]2O[C@H](CO)[C@@H](O)[C@@H]2O)c(=O)n1 [Cytarabine] + Cc1cc(Nc2cc(N3CCN(C)CC3)nc(Sc3ccc(NC(=O)C4CC4)cc3)n2)n[nH]1 [Tozasertib] (partner 0.1 µM)	0.32
Nc1ccn([C@@H]2O[C@H](CO)[C@@H](O)[C@@H]2O)c(=O)n1 [Cytarabine] + Nc1nc2[nH]cc(CCc3ccc(C(=O)N[C@@H](CCC(=O)O)C(=O)O)cc3)c2c(=O)[nH]1 [Pemetrexed] (partner 0.2 µM)	0.333
COc1cc2nccc(Oc3ccc(NC(=O)Nc4cc(C)on4)c(Cl)c3)c2cc1OC [Tivozanib] + CS(=O)(=O)N1CCN(Cc2cc3nc(-c4cccc5[nH]ncc45)nc(N4CCOCC4)c3s2)CC1 [Pictilisib] (partner 1 µM)	0.742
COc1cc2nccc(Oc3ccc(NC(=O)Nc4cc(C)on4)c(Cl)c3)c2cc1OC [Tivozanib] + Cc1nc(Nc2ncc(C(=O)Nc3c(C)cccc3Cl)s2)cc(N2CCN(CCO)CC2)n1 [Dasatinib] (partner 0.075 µM)	0.272

Now examine the next entry.
Query string: Provide value of relative viability for this record tested with NCI-H1915: Nc1ccn([C@@H]2O[C@H](CO)[C@@H](O)[C@@H]2O)c(=O)n1 [Cytarabine] + N=C(N)NC(=N)NCCc1ccccc1 [Phenformin] (partner 250 µM)
Result string: 0.245
